System: T1, Human GPR7 (human, UniProt P48145 1-328)
T1 construct: Full-length receptor expressed in CHO dhfr- cells; also called Human GPR7 receptor; GPR7 receptor
T1 sequence: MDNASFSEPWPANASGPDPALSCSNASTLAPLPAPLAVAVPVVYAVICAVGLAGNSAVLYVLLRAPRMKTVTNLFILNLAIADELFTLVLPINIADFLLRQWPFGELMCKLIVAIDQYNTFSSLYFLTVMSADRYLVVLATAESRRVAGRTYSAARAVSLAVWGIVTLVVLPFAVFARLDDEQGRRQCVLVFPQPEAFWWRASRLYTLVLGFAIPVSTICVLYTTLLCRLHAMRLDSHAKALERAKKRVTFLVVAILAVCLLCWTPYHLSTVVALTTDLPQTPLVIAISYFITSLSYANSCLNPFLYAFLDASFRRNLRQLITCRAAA
Measurement notes: competition with [125I-Tyr10]-hGPR8L(1-23), membrane fraction of GPR7 expressing CHO cells
No end group written: not given here. *: point of attachment. Propanoyl(3-indol-3-yl) = O=C(CCc1c[nH]c2ccccc12)*
Below: a set of entries, each annotated with reported pIC50.
To interpret pIC50, take it as minus log10 of a concentration measured in moles per litre.

These solved cases illustrate the format of a correct answer.
- Binder: "XYKHVASPRYHTVGRAAGLLMGL (D-Trp at position 1, also called [D-Trp^1]-hGPR8L(1-23)) [[D-Trp^1]-Human GPR8 ligand (1-23)]"
  pIC50: 9.20
- Binder: "YKHVASPRYHTVGRAAGLLMGL (also called hGPR8L(2-23)) [Human GPR8 ligand (2-23)]"
  pIC50: 6.85
- Binder: "WYKHVASPRYHTVGRAAGLLMGLRRSPYLW (also called hGPR8L(1-30); Human GPR8 ligand (1-30)) [human homologue of GPR8 ligand peptide consisting of 30 residues]"
  pIC50: 10.60

// moving on: another record for pIC50
Query: Recorded pIC50 of {Propanoyl(3-indol-3-yl)}-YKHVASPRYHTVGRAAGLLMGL (also called IndPr-hGPR8L(2-23)) [[N-3-Indolepropanoyl-Tyr^2]-human GPR8 ligand (2-23)] , please.
Reply: 10.36

meta.source: patent US20050124539A1
